B1: RTP4 (parent)
chain: AFGWFRCSSCQRSWASAQVQILCH

- Variants of: B1
- Experiment: protein stability index of a GFP-peptide fusion (GPS, HEK-293T) (PSI 1-6); higher = more stable;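 further: lentivirally expressed fusions sorted by FACS into six bins by GFP to DsRed ratio, PSI derived from sequencing read proportions per bin multiplied by bin number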
- Run parameters: c terminus: a fixed tail appended
Would you mind labelling by protein stability index? At or over 2 is label 1, under is label 0.

Example results:
C23D
label 0
Q18W
label 1
C23Q
label 1
V19R
label 1

*Q* Hello, I need to know if I21H has measured protein stability index not below 2. Thanks!
*A* label 1

*Q* Hello, I need to know if I21R has measured protein stability index not below 2. Thanks!
*A* label 0

Values from the supplement of paper PMC10567573
